- experimentalTarget: KRAS-G12C/SOS1 (Homo sapiens (Human))
- Sequence (Q07889 whole entry, stated change not applied): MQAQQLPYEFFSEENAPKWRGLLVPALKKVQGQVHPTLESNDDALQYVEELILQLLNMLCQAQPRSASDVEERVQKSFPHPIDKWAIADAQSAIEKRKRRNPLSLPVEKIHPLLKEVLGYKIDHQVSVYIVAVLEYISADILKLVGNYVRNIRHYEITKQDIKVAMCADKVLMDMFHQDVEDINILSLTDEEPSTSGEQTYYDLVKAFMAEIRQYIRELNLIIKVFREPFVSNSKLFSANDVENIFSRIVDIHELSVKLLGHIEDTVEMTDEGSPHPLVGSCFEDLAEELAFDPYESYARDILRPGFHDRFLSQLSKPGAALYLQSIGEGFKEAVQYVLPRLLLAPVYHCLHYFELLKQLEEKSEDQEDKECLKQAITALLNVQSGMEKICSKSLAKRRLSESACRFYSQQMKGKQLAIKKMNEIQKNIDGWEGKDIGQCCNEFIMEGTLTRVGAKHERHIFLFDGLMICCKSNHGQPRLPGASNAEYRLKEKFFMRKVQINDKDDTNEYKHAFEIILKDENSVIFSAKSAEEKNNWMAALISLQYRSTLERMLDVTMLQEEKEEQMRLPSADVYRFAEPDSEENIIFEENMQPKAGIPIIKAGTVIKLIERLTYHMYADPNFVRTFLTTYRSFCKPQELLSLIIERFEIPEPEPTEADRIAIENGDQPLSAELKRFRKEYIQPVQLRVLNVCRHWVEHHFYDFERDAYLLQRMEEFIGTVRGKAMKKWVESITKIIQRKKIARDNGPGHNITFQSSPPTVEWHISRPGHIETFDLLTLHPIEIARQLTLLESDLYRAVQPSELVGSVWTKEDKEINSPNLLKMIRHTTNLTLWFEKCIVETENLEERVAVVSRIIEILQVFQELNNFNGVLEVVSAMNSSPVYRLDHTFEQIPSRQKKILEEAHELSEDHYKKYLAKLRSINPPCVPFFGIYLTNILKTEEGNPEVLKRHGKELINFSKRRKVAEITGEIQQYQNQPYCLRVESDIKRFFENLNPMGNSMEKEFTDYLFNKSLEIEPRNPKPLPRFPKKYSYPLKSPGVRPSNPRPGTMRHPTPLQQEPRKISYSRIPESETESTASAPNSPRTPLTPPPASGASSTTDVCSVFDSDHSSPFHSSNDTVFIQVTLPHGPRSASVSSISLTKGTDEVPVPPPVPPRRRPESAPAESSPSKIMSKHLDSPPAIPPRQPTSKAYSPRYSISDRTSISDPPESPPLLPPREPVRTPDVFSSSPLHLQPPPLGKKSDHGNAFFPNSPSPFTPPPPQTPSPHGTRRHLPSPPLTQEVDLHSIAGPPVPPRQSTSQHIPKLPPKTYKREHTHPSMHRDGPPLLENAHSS
- protocolDescription: Detection of inhibitory effects of compounds on KRAS-G12C/SOS1 (KRASG12C/SOS binding kit, HTRF)
- assayConditions: Em665/620, read-out: IC50, inhibitory activity on interaction of KRAS-G12C/SOS1
Could you please report measured IC50 for the items listed next?

Asked: Report IC50 on KRAS-G12C/SOS1 (Homo sapiens (Human)) for this entry: `CC(=O)N1CCN(c2cc3c(N[C@H](C)c4cccc(C(F)F)c4F)ccnc3c(C)n2)[C@@H](CO)C1`
Given back: ≤ 100 nM

Asked: Give IC50 only, for C[C@@H](Nc1ccnc2cnc(N3CC(O)CC3=O)cc12)c1cccc(C(F)F)c1F (stereo partly shown) , using KRAS-G12C/SOS1 (Homo sapiens (Human)) data.
Given back: 100 to 500 nM

Asked: Supply IC50 measured with KRAS-G12C/SOS1 (Homo sapiens (Human)) for `CC(=O)N1CCN(c2cc3c(N[C@H](C)c4cccc(C(F)F)c4F)ccnc3c(C)n2)CC1` .
Given back: ≤ 100 nM

Asked: Fill in IC50 for `COC[C@@H]1CN(C(C)=O)CCN1c1cc2c(N[C@H](C)c3cccc(C(F)F)c3F)ccnc2cn1` tested with KRAS-G12C/SOS1 (Homo sapiens (Human)).
Given back: ≤ 100 nM

Asked: Report IC50 under test system KRAS-G12C/SOS1 (Homo sapiens (Human)) for C[C@@H](Nc1ccnc2cnc(C3(O)CCC(O)CC3)cc12)c1cccc(C(C)(F)F)c1F (single isomer, unassigned) [Compound B-87-P2] .
Given back: 100 to 500 nM

Asked: Give reported IC50 for `CC(=O)N1CCC(O)(c2cc3c(N[C@H](C)c4cccc(C(F)(F)F)c4F)ccnc3cn2)CC1` (KRAS-G12C/SOS1 (Homo sapiens (Human)))
Given back: ≤ 100 nM

Asked: For KRAS-G12C/SOS1 (Homo sapiens (Human)), give the measured IC50 of the entry Cc1nc(C2(O)CCC(O)CC2)cc2c(N[C@H](C)c3cccc(C(F)F)c3F)ccnc12 (stereo partly shown)
Given back: ≤ 100 nM

* * *

- Tested on: p-ERK of PC-9 cells
- protocolDescription: p-ERK HTRF assay in PC-9 cells
- Type: cell-based
- assayConditions: Homo sapiens, PC-9, 1 h, PC-9 lung cancer cells, 1 hour treatment, read-out: IC50, inhibitory activity on p-ERK of PC-9 cells
measuredAttribute: IC50

Asked: Note down IC50 recorded for `C[C@H](O)C(=O)N1CCC(O)(c2cc3c(N[C@H](C)c4cccc(C(F)F)c4F)c(F)cnc3cn2)CC1`
Given back: ≤ 300 nM

Asked: Complete the entry with IC50 for `COc1nc(N2CCN(C(C)=O)CC2)cc2c(N[C@H](C)c3cccc(C(F)F)c3F)ccnc12`
Given back: ≤ 300 nM

Asked: Please give measured IC50 of the following entry: CC(=O)N1C2CCC1CC(O)(c1cc3c(N[C@H](C)c4cccc(C(F)F)c4F)ccnc3c(C)n1)C2 (stereo partly drawn)
Given back: > 1000 nM

Asked: Recall and state the measured IC50 for `CNCC(=O)N1CCC(O)(c2cc3c(N[C@H](C)c4cccc(C(F)F)c4F)ccnc3cn2)CC1` .
Given back: > 1000 nM

Asked: Using known records, supply IC50 for `CC(=O)N1CC=C(c2cc3c(N[C@H](C)c4cccc(C(F)F)c4F)ccnc3cn2)C1`
Given back: ≤ 300 nM

Asked: Read off the recorded IC50 for `CC(=O)N1CCN(c2cc3c(N[C@H](C)c4cccc(C(F)(F)F)c4C)ccnc3cn2)CC1`
Given back: ≤ 300 nM

Asked: Find the measured IC50 of `C[C@@H](Nc1ccnc2cnc(C3(O)CCN(C(=O)[C@H]4C[C@@H](O)CN4C)CC3)cc12)c1cccc(C(F)F)c1F` and report it.
Given back: > 1000 nM

Asked: Check the records and state IC50 for `COc1nc(C2(O)CCN(C(=O)CO)CC2)cc2c(N[C@H](C)c3cccc(C(F)F)c3F)ccnc12`
Given back: ≤ 300 nM

Asked: Entry `C[C@@H](Nc1ccnc2cnc(C3(O)CCN(Cc4ccccn4)CC3)cc12)c1cccc(C(F)F)c1F` needs its IC50 filled in; supply it.
Given back: 300 to 1000 nM

Asked: Check the records and state IC50 for `CC(=O)N1CCC(N)(c2cc3c(N[C@H](C)c4cccc(C(F)F)c4F)ccnc3cn2)CC1`
Given back: ≤ 300 nM

Asked: Find the measured IC50 of `C[C@@H](Nc1ccnc2cnc(N3CCCS3(=O)=O)cc12)c1cccc(C#N)c1F` and report it.
Given back: ≤ 300 nM

Asked: Look up and report measured IC50 for this entry: `C[C@@H]1OCC2(CCN(c3cc4c(N[C@H](C)c5cccc(C(F)F)c5F)ccnc4cn3)CC2)[C@@H]1N`
Given back: ≤ 300 nM

Asked: Indicate its recorded IC50; the compound in question is `C[C@@H](Nc1ccnc2cnc(N3CCCS3(=O)=O)cc12)c1cccc(C(F)F)c1F`
Given back: ≤ 300 nM

Asked: Note IC50 for the compound shown: `CC(=O)N1CCC(O)(c2cc3c(N[C@H](C)c4cccc(C(F)F)c4F)ccnc3c(C)n2)CC1`
Given back: > 1000 nM

Asked: Quote IC50 reported for CC(=O)N1CCN(c2cc3c(N[C@H](C)c4cccc(C(F)F)c4F)ccnc3cn2)CC1CO (stereo partly drawn) please.
Given back: ≤ 300 nM

* * *

- System: p-ERK of PC-9 cells
- protocolDescription: p-ERK HTRF assay in PC-9 cells
- Assay type: cell-based
- assayConditions: Homo sapiens, PC-9, 1 h, PC-9 lung cancer cells, 1 hour treatment, read-out: IC50, inhibitory activity on p-ERK of PC-9 cells
measuredAttribute: IC50

Asked: Please respond with reported IC50 (system p-ERK of PC-9 cells) for `C[C@@H](Nc1ccnc2cnc(C3(O)CCN(C(=O)[C@H]4CNCCO4)CC3)cc12)c1cccc(C(F)F)c1F` .
Given back: > 1000 nM

Asked: Write IC50 of `COc1c(N2CCN(C(C)=O)CC2)cc2c(N[C@H](C)c3cccc(C(F)F)c3F)ccnc2c1F` ; system used: p-ERK of PC-9 cells
Given back: ≤ 300 nM

Asked: Quote IC50 with test system p-ERK of PC-9 cells for `C[C@@H](Nc1ccnc2cnc(C3(O)CCN(C(=O)[C@H]4CCOC4)CC3)cc12)c1cccc(C(F)F)c1F`
Given back: ≤ 300 nM

Asked: Fill in IC50 for `C[C@@H](Nc1ccnc2cnc(N3CCC(O)CC3)cc12)c1cccc(C(F)F)c1F` tested with p-ERK of PC-9 cells.
Given back: ≤ 300 nM

Asked: Report value: IC50, system: p-ERK of PC-9 cells, compound: `C[C@@H](Nc1ccnc2cnc(C3(O)CCS(=O)(=O)CC3)cc12)c1cccc(C(F)F)c1F`
Given back: 300 to 1000 nM

Asked: Supply IC50 measured with p-ERK of PC-9 cells for `C[C@@H](Nc1ccnc2cnc(C3(O)CCN(C(=O)C4(C#N)CC4)CC3)cc12)c1cccc(C(F)F)c1F` .
Given back: ≤ 300 nM

* * *

Exercise: state measured pIC50 for each of the molecules provided.
- Tested on: p-ERK of PC-9 cells
- protocolDescription: p-ERK HTRF assay in PC-9 cells
- Format: cell-based
- assayConditions: Homo sapiens, PC-9, 1 h, PC-9 lung cancer cells, 1 hour treatment, read-out: IC50, inhibitory activity on p-ERK of PC-9 cells
pIC50: −log10 of the molar value.

Asked: Tell me its pIC50 on p-ERK of PC-9 cells: C[C@@H](Nc1ccnc2cnc(C3(O)CCC(N(C)C)CC3)cc12)c1cccc(C(F)F)c1F (single isomer, unassigned) [Compound B-94-P2]
Given back: ≥ 6.52

Asked: Using p-ERK of PC-9 cells as the test system, report measured pIC50 of C[C@@H](Nc1ccnc2cnc(C3(O)CCC(O)CC3)cc12)c1cccc(C(F)(F)F)c1F (single isomer, unassigned) [Compound B-85-P1] .
Given back: 6.00 to 6.52

Asked: System p-ERK of PC-9 cells. Read-out pIC50. Item C[C@@H](Nc1ccnc2cnc(C3(O)CCN(C(=O)C[C@@H]4CNCCO4)CC3)cc12)c1cccc(C(F)F)c1F [Compound B-142] . Report value.
Given back: < 6.00

Asked: Would you please give the reported pIC50 of C[C@@H](Nc1ccnc2c(-c3cnn(C)c3)nc(C3(O)CCN(C(=O)CO)CC3)cc12)c1cccc(C(F)F)c1F [Compound B-171] with p-ERK of PC-9 cells?
Given back: ≥ 6.52

Asked: State pIC50 on p-ERK of PC-9 cells. Entry: CC(=O)N1C2CCC1CN(c1cc3c(N[C@H](C)c4cccc(C#N)c4F)ccnc3cn1)C2 [Compound B-165]
Given back: 6.00 to 6.52

Asked: Enter measured pIC50, system p-ERK of PC-9 cells, for the molecule shown: COc1nc(C2(O)CCN(C(=O)[C@H](C)O)CC2)cc2c(N[C@H](C)c3cccc(C(F)F)c3F)ccnc12 [Compound B-174]
Given back: 6.00 to 6.52

Asked: System p-ERK of PC-9 cells. Read-out pIC50. Item CC(=O)N1CCN(c2cc3c(N[C@H](C)c4cccc(C(F)F)c4F)cc(C)nc3cn2)CC1 [Compound B-71] . Report value.
Given back: ≥ 6.52
